Assay Overview: Metabolic stability in human liver S9 fraction assessed as parent compound remaining after 60 mins
Assay type: ADME, subcellular
Measurement Parameters: read-out: Stability
remaining at 1 h by entry:
Observation Type: remaining at 1 h

compound_structure=C[C@@H](Oc1cc(C(=O)N(C)C)ccc1Nc1nc(O[C@H]2CC[C@@](C)(O)CC2)c2c(Cl)c[nH]c2n1)C(F)(F)F reading=65%
compound_structure=COc1cc(N2CCN(C(=O)CO)CC2)ccc1Nc1nc(O[C@H]2CCOC(C)(C)C2)c2cc[nH]c2n1 reading=79%
compound_structure=COc1cc(N2CCN(C3COC3)CC2)ccc1Nc1nc(O[C@H]2CCOC(C)(C)C2)c2cc[nH]c2n1 reading=85%

====

Assay Overview: Oral bioavailability in rat at 5 mg/kg
Measurement Parameters: in vivo
Observation Type: bioavailability (%)

compound_structure=CNC(=O)c1ccc(Nc2nc(OC3CCCC3)c3c(-c4ccc5nc(C)oc5c4)c[nH]c3n2)c(OC)c1 unit_abbreviation=% reading=0.9

====

Target Or Test System: Mitogen-activated protein kinase 8 (Homo sapiens)
Sequence (P45983 whole entry): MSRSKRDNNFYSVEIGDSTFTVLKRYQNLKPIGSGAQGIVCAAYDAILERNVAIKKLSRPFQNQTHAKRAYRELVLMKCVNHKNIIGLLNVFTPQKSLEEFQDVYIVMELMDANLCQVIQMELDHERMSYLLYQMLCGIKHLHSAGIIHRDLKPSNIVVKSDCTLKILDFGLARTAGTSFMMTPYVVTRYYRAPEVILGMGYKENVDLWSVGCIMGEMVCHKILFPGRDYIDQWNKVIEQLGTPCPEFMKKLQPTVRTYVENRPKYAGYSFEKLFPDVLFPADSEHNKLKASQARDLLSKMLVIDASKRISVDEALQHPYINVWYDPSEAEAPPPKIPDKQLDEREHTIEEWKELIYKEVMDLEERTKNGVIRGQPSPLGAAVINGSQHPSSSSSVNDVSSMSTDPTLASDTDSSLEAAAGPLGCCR
Assay Overview: Inhibition of recombinant human full length His-tagged JNK1 expressed in baculovirus expression system by Z'-LYTE assay
Observation Type: IC50 (nM)

compound_structure=C[C@@H](Oc1cc(C(=O)N(C)C)ccc1Nc1nc(O[C@H]2CC[C@@](C)(O)CC2)c2c(Cl)c[nH]c2n1)C(F)(F)F observation_type=IC50 reading=0.032

====

Target Or Test System: Mitogen-activated protein kinase 9 (Homo sapiens)
Sequence (P45984 whole entry): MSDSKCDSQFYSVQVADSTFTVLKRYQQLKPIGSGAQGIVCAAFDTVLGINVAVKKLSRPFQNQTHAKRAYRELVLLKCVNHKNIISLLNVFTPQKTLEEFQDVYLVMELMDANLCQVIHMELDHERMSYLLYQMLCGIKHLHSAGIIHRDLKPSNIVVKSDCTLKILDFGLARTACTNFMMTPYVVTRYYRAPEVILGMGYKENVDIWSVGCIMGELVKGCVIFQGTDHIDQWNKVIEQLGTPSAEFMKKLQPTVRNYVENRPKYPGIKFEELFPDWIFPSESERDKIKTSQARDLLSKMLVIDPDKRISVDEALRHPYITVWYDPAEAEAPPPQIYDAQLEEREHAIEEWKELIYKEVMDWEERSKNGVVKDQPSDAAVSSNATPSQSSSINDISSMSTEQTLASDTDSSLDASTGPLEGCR
Assay Overview: Inhibition of recombinant human full length His-tagged JNK2 expressed in baculovirus expression system by Z'-LYTE assay
pIC50: −log10 of the molar value.
Observation Type: pIC50

compound_structure=C[C@@H](Oc1cc(C(=O)N(C)C)ccc1Nc1nc(O[C@H]2CC[C@@](C)(O)CC2)c2c(Cl)c[nH]c2n1)C(F)(F)F reading=10.23

====

Assay Overview: AUC in rat at 10 mg/kg, po
Assay type: ADME, organism-based
Measurement Parameters: in vivo
Observation Type: AUC (µM·h)

compound_structure=CN(C)C(=O)c1ccc(Nc2nc(O[C@H]3CC[C@@](C)(O)CC3)c3cc[nH]c3n2)c(OCC(F)(F)F)c1 observation_type=AUC unit_abbreviation=µM·h reading=16.1
compound_structure=COc1cc(N2CCN(C3COC3)CC2)ccc1Nc1nc(O[C@H]2CCOC(C)(C)C2)c2cc[nH]c2n1 observation_type=AUC unit_abbreviation=µM·h reading=24
compound_structure=COc1cc(N2CCOCC2)ccc1Nc1nc(O[C@H]2CCOC(C)(C)C2)c2cc[nH]c2n1 observation_type=AUC unit_abbreviation=µM·h reading=14.7
compound_structure=C[C@@H](Oc1cc(C(=O)N(C)C)ccc1Nc1nc(O[C@H]2CC[C@@](C)(O)CC2)c2cc[nH]c2n1)C(F)(F)F observation_type=AUC unit_abbreviation=µM·h reading=30
compound_structure=COc1cc(C(=O)N(C)C)ccc1Nc1nc(O[C@H]2CCOC(C)(C)C2)c2cc[nH]c2n1 observation_type=AUC unit_abbreviation=µM·h reading=30
compound_structure=COc1cc(N2CCC(C)(O)CC2)ccc1Nc1nc(O[C@H]2CCOC(C)(C)C2)c2cc[nH]c2n1 observation_type=AUC unit_abbreviation=µM·h reading=11
compound_structure=COc1cc(C(=O)N(C)C)ccc1Nc1nc(O[C@H]2CC[C@@](C)(O)CC2)c2cc[nH]c2n1 observation_type=AUC unit_abbreviation=µM·h reading=21.8
